- Assay name: folding stability dG unfold from trypsin proteolysis; higher = more stable
Recorded folding stability dG unfold values for a group of sequences are listed next.
Respond numerically; units are kcal/mol and should not be typed.

Worked examples follow.
INSERT INTO measurements (sequence_entry, unit_text, value_reported) VALUES
  ('SAGMKTVTVKVKISEEEREKLKELGFEIVEEKEDYLVIKVKVPPELSEEELEEAKKEGMTLEEALAKLSAGG [r19_115_TrROS_Hall]', 'kcal/mol', 2.05),
  ('SAWIEIEKDPDGMFELEIPWPDGHPVKIHYNPDDGKPLHIMFPNGWHLQIWISPDGKIEIEDIHPIPPNSAG [r14_877_TrROS]', 'kcal/mol', 3.11),
  ('SMTIEGMSPREAVRNIIEEFIEMFEANGNPPMPIKIRFPGNGKPIYEFPIQSKEQLLDQIENGVPVSIEFSA [r9_718_TrROS]', 'kcal/mol', 0.604),
  ('SMKKVLIVTPNPEINPEEVVKALKEKGFKEIKVFSTPEELKEALPEYDIVIIEENGKLYIKYIPPGKLAKSA [r9_750_TrMRF]', 'kcal/mol', 0.334),
  ('SAGGSAGGSKIPPGEPVTLPIFFIIWDPENGRPYAMRMEITFDAPDGNITKMNEEVIPPGQPFSAGGSAGGS [r12_868_TrROS]', 'kcal/mol', 1.5),
  ('SAGGSAGGKEVKIEIYDSDDGILLVEVPDLDDAVEAVEKLGVELELVPYDPEKGRLLLRLRIPGSAGGSAGG [r6_510_TrMRF]', 'kcal/mol', 0.26),
  ('SAGGWFTWDIPVKADDPKEAVDYAKEQIKNIMREHHPGMPPGMKIDDIKVEPPPNGWYWVKITIEIDPPSAG [r5_320_TrROS]', 'kcal/mol', 1.83),
  ('SAGGSAGGSYLDPNKVYLVETEVVGDKVVFTLRDPETGETFVLEADASKEVLKPGDRVLALVASAGGSAGGS [r12_525_TrMRF]', 'kcal/mol', 1.47);

# input Quick check: folding stability dG unfold of SAGGKYEYDPDNGYYRDEDGKMYYPMPPQIPPIEIPIPINLPNGQKLNIPVEFRTIEDALDALKKFFSAGGS [r8_440_TrROS] ?
# output 0.697

# input Moving on to the next sequence: SAGMKKKITVKVKVKTEEEAEKLAEELEKELGLKVTVEKNEETGVYTITVEVSPEAVEALKKAGVEIESAGG [r19_306_TrROS_Hall]
# output 1.93

# input Moving on to the next sequence: SAGGKPRILLRRETAPDGRPYYVLQVLRRDPSDDGWTPVLEHRFETPEEAERYARELAEKTGYELVGSAGGS [r16_512_TrMRF]
# output 4

# input Moving on to the next sequence: SAGGMMKLELEIEKEDGKKYKIEVEYNKEEPVLKIKIYDKNGKKIKEIEIKAKSLEEALEAAKKLLKSAGGS [r16_158_TrROS_Hall]
# output 3.3

# input Moving on to the next sequence: SMKPGQTVTFNVMIRMKDPNMTAQEFAEEAADEIAENFPPGVKIEIKVDDIEPDPPNGEVYFMVKITITVSA [r9_706_TrROS]
# output 2.54

# input Moving on to the next sequence: SAGGSEVVLEAEGVDPATGKPYTVRVVYDKETGVPVVEVRDADGTLLAVIPVPPDKALEALKELGVSAGGSA [r2_115_TrMRF]
# output 2.92

# input Moving on to the next sequence: SAGGSAGGSAGKMLLIEIEVDGKKYLIEIEVPEGEEITPEELAKLLGIPNVKVKVYELEESAGGSAGGSAGG [r11_219_TrROS_Hall]
# output 2.47

# input Moving on to the next sequence: SAGGSAGGSASSMVKPEKLPNGEKVVVTTETVPDPNSDTPVTVVTTEIYKGDKIVEVKTTLVSAGGSAGGSA [r18_185_JUSTAS]
# output 0.339

# input Moving on to the next sequence: MRRFEFPETGLVVPVVPSPDGRYRVRIYRPGGELVLEVELPDLPIPEGSDAEIRIPLKDLPPDLVTFVEPES [r1_263_TrMRF]
# output 0.819

# input Moving on to the next sequence: SAGGSAGGMFIALVTITLPNGEKITDLAFFESPEKIYVLNLKDGKWSEPKVEDIKVVPLEELLFSAGGSAGG [r6_558_TrMRF]
# output 1.92

# input Moving on to the next sequence: SAGGSAGGEELAKRLKELFPNAKIVEIKYDKKTKKVTIKVELEPGMSEEQRERLRKLLEELLKKSAGGSAGG [r6_97_TrROS_Hall]
# output 3.13

# input Moving on to the next sequence: SAGGSAGGSAMKYKVTVTTTPPDGTTTTTPTVVDFKSKEEIEEYVKKKAPKDTKVEVEIEPESAGGSAGGSA [r18_60_JUSTAS]
# output -0.228

# input Moving on to the next sequence: SAGGSAGEIEGEEAAKLVEDALRALDPNVRVEYEPLPGEKPLLLVRVYRVDPESGAETPLATLLIGSAGGSA [r15_682_TrMRF]
# output 1.78

# input Moving on to the next sequence: NIRITDIEMYPFPNNNQPQMEFTLEWPNGPRRTVEFELPGQEMEVYVDPKKGEIWFYFPNNGMFMKITIEPS [r1_125_TrROS]
# output 1.37
